Test system: TRZAS
TEST DESCRIPTION: Pre-emergence herbicidal effect and crop plant compatibility, greenhouse pot test
Assay type: in vivo, Triticum aestivum
MEASUREMENT SETUP: 80 g/ha, scored visually after about 3 weeks vs untreated controls
QUANTITY: Pre-emergence effect at 80 g/ha against TRZAS in %
Remember to quote the unit after the number.

// below: answered compounds
Case CCOC(=O)C(OCC)Oc1nn(-c2ccc(Cl)cc2F)c(-c2ccc(F)cc2F)c1Br (centres unmarked) , TRZAS, Pre-emergence effect at 80 g/ha against TRZAS in % recorded as 0%

Case COC(=O)C(OC)Oc1nn(-c2ncccc2F)c(-c2ccc(F)cc2F)c1Br (centres unmarked) , TRZAS, Pre-emergence effect at 80 g/ha against TRZAS in % recorded as 20%

Case CCOC(=O)C(OCC)Oc1nn(-c2ncccc2F)c(-c2ccc(F)cc2F)c1Br (centres unmarked) , TRZAS, Pre-emergence effect at 80 g/ha against TRZAS in % recorded as 0%

Further cases:
Case COC(=O)C(OC)Oc1nn(-c2ncccc2F)c(-c2ccccc2)c1Br (centres unmarked) , TRZAS, Pre-emergence effect at 80 g/ha against TRZAS in % recorded as 10%

Case COC(=O)C(OC)Oc1nn(-c2ccc(Cl)cc2F)c(-c2ccc(F)cc2F)c1Br (centres unmarked) , TRZAS, Pre-emergence effect at 80 g/ha against TRZAS in % recorded as 0%
